Catalogue of binders with associated koff
subject_of_test: T1, cynomolgus PD-1 (#PD1-C52H5, AcroBiosystems) (cynomolgus monkey, UniProt B0LAJ3 25-170)
T1 construct: bought; also called cynomolgus monkey PD-1; not shown: the vendor's tag on the recombinant protein (AcroBiosystems #PD1-C52H5)
protocol_description: SPR, PD-1 on captured IgG1
A number alone suffices; assume s⁻¹.

| binder | koff [s⁻¹] |
| --- | --- |
| DKR699 (antibody, human IgG1, V domains shown, human IgG1) VH: VQLVQSGAEVKKPGASVKVSCKASGYTFTNFYIHWVRQAPGQGLEWMGSIYPNYGDTAYNQKFKDRVTMTVDTSTSTAYMELRSLRSDDTAVYYCARGYSYAMDYWGQGTTVTVSS VL: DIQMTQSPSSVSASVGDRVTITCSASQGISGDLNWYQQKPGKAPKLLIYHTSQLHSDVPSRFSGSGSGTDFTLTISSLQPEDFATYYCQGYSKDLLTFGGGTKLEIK | 0.000203 |
| ACH836 (antibody, human IgG1, V domains shown, human IgG1) VH: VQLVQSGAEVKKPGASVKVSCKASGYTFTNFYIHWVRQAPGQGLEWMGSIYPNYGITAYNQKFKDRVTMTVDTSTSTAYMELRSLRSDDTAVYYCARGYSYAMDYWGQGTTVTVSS VL: DIQMTQSPSSVSASVGDRVTITCSASQGASGDLNWYQQKPGKAPKLLIYHTSQLHSDVPSRFSGSGSGTDFTLTISSLQPEDFATYYCQGYSKDLLTFGGGTKLEIK | 0.000101 |
| JPK663 (antibody, human IgG1, V domains shown, human IgG1) VH: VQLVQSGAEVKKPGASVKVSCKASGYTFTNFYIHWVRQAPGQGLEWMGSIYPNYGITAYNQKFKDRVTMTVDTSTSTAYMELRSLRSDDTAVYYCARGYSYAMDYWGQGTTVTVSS VL: DIQMTQSPSSVSASVGDRVTATCSASQGISGDLNWYQQKPGKAPKLLIYHTSQLHSDVPSRFSGSGSGTDFTLTISSLQPEDFATYYCQGYSKDLLTFGGGTKLEIK | 0.000124 |

Asked: Param item = KOB135 (antibody, human IgG1, V domains shown, human IgG1) VH: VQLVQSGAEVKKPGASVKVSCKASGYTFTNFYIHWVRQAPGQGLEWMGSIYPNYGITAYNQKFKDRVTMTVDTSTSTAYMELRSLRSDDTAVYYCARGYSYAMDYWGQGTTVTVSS VL: DIQMTQSPSSVSASVGDRVTITCSASQGISGDLNWYQQKPGKAPKLLIYHTSQQHSDVPSRFSGSGSGTDFTLTISSLQPEDFATYYCQGYSKDLLTFGGGTKLEIK ; retrieve measured koff.
Given back: 0.000179

Asked: Param item = QGA408 (antibody, human IgG1, V domains shown, human IgG1) VH: VQLVQSGAEVKKPGASVKVSCKASGYTFTNFYIHWVRQAPGQGLEWMGSIYPNYGITAFNQKFKDRVTMTVDTSTSTAYMELRSLRSDDTAVYYCARGYSYAMDYWGQGTTVTVSS VL: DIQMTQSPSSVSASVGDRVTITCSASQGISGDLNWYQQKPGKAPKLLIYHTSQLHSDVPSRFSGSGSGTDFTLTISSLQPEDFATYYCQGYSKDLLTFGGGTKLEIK ; retrieve measured koff.
Given back: 0.000182
